- System: CRL-7250
- ASSAY_METHOD_TEXT: Cytotoxic Profiling of Annotated Libraries Using Quantitative High-Throughput Screening (AID 1296008); note: nearly all actives have a fitted effect of over 60% in size
- CONDITION_SET: Five cell lines viability, CellTiter-Glo ATP luminescence, 48-72 h
Inconclusive results are not listed. Active and inactive are the calls of the source. Calls come from the whole dose curve; as a rule, active = well fitted inhibition curve with a large enough effect; inconclusive = small, poorly fitted or top-dose-only effect; inactive = flat fitted curve, though single readings scatter.
// allowed return values: yes for active, no for inactive

Solved cases below.
> print(dat)
                                   compound  answer.label
1   COC(=O)Nc1nc2ccc(C(=O)c3ccccc3)cc2[nH]1           yes
2                 CNNCc1ccc(C(=O)NC(C)C)cc1            no
3  CCN(CC)CC#CCOC(=O)C(O)(c1ccccc1)C1CCCCC1 (stereo unspecified)            no
4  C[C@@H]1CN(c2c(F)c(N)c3c(=O)c(C(=O)O)cn(C4CC4)c3c2F)C[C@H](C)N1            no
5  O=C(O)C1CCCN(CCC=C(c2ccccc2)c2ccccc2)C1 (stereo unspecified)            no

Field: next compound
In: Per the records of this test, what outcome belongs to CC1=NN(c2ccccc2)C(=O)C1 ?
Out: no

---

Please respond with reported max response for every item in the list.
- ASSAY_METHOD_TEXT: qHTS Assay for Identifying Gametocytocidal Compounds (AID 743244);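 note: % is set by controls: 0 for no effect and ±100 for the full control effect; actives lower the fluorescent signal which means gametocytes are killed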
- CONDITION_SET: P. falciparum 3D7 stage III-V gametocytes, alamarBlue, 72 h; hits give low values
Results filed as inconclusive are left out.
One number for each entry, in %.

Field: example entries. Status: answers known.
> print(dat)
                                   compound  quantity.measured  result.number
1                         Nc1[nH]c(=O)ncc1F       max response          -2.11
2         COc1cnc(NS(=O)(=O)c2ccc(N)cc2)nc1       max response           7.05
3  CCCCS(=N)(=O)CCC(N)C(=O)O (configuration not stated)       max response          -16.7
4                   CCCCOc1ccc(CC(=O)NO)cc1       max response           1.51

Lab note: each compound below needs its max response filled in.
1. CN(CCOc1ccc(CC2SC(=O)NC2=O)cc1)c1ccccn1 (configuration not stated)
2. COc1ccc(-c2ccc3cc(C(=O)O)ccc3c2)cc1C12CC3CC(CC(C3)C1)C2
3. CNC1CCCN(c2c(F)cc3c(=O)c(C(=O)O)cn(C4CC4)c3c2OC)C1 (configuration not stated)

Out:
1: 11.4; 2: 23.8; 3: -8.7

---

- Tested on: PC15
- ASSAY_METHOD_TEXT: qHTS profiling for inhibitors of Plasmodium falciparum proliferation (AID 504749); note: nearly all actives have a fitted effect of over 60% in size
- CONDITION_SET: P. falciparum in erythrocytes, SYBR Green DNA, 72 h; series mostly up to 28.7 µM
Records with an inconclusive call do not appear. Activity calls are given as the source filed them. The call rests on the fitted dose curve; in most records, active means well fitted inhibition curve with a large enough effect; inconclusive means small, poorly fitted or top-dose-only effect; inactive means flat fitted curve, though single readings scatter.
// allowed return values: T = active, F = inactive

> print(dat)
                                   compound  target  answer.label
1         CNCC[C@H](Oc1cccc2ccccc12)c1cccs1    PC15             T
2                        CCc1cc(C(N)=S)ccn1    PC15             F
3  CCOC(=O)c1ccc(C#Cc2ccc3c(c2)C(C)(C)CCS3)nc1    PC15             F
4  CCOCC(O)COc1ccc(NC(=O)CC[S+](C)C)cc1 (configuration not stated)    PC15             F
5        CC(C)OC(=O)C(C(=O)OC(C)C)=C1SC=CS1    PC15             F
6  CCn1cc(C(=O)O)c(=O)c2cc(F)c(N3CCNCC3)nc21    PC15             F

Field: next compound
In: Per the records of this test, what outcome belongs to Nc1nc(N)nc(-c2cc(Cl)ccc2Cl)n1 ?
Out: F
